Provenance of the data: patent US8624002B2

Test: Accelerated stability screening monitored by SEC
Assay type: physicochemical
Conditions: SEC, start of stability study; 0.79 mg/mL, pH 6
Binary label based on Aggregate (%) with cut-off 2%: below gives y, not below gives n.

# molecule, class_label
records = [
    ("Hu2B5.1: humanized 2B5-8.0; VH SEQ ID NO 60, VL SEQ ID NO 61 (antibody, V domains shown) VH: EVQLVQSGAEVKKPGASVKVSCKASGYTFTKYWLGWVRQAPGQGLEWIGDIYPGYDYTHYNEKFKDRATLTVDTSTSTAYMELRSLRSDDTAVYYCARSDGSSTYWGQGTLVTVSS VL: DVVMTQTPLSLPVTPGEPASISCTSSQNIVHSNGNTYLEWYLQKPGQSPQLLIYKVSNRFSGVPDRFSGSGSGTDFTLKISRVEAEDVGVYYCFQVSHVPYTFGGGTKVEIKR", "y"),
    ("Hu2B5.4: humanized 2B5-8.0; VH SEQ ID NO 66, VL SEQ ID NO 67 (antibody, V domains shown) VH: EVQLVQSGAEVKKPGASVKVSCKASGYTFTKYWLGWVRQAPGQGLEWIGDIYPGYDYTHYNEKFKDRATLTVDTSTSTAYMELSSLRSDDTAVYYCARSDGSSTYWGQGTLVTVSS VL: DVLMTQTPLSLPVTPGEPASISCTSSQNIVHSNGNTYLEWYLQKPGQSPQLLIYKVSNRFSGVPDRFSGSGSGTDFTLKISRVEAEDVGVYYCFQVSHVPYTFGGGTKVEIKR", "n"),
    ("Hu2B5.2: humanized 2B5-8.0; VH SEQ ID NO 62, VL SEQ ID NO 63 (antibody, V domains shown) VH: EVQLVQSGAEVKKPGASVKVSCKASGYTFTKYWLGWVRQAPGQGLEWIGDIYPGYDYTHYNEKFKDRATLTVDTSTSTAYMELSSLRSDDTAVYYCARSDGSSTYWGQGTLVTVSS VL: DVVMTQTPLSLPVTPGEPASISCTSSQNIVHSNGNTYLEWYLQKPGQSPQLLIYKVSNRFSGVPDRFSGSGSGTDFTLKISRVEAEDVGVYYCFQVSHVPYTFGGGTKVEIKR", "y"),
]

Inquiry: Please indicate whether the reported Aggregate (%) of Hu2B5.6: humanized 2B5-8.0; VH SEQ ID NO 70, VL SEQ ID NO 71 (antibody, V domains shown) VH: EVQLVQSGAEVKKPGASVKVSCKASGYTFTKYWLGWVRQAPGQGLEWMGDIYPGYDYTHYNEKFKDRVTLTTDTSTSTAYMELSSLRSDDTAVYYCARSDGSSTYWGQGTLVTVSS VL: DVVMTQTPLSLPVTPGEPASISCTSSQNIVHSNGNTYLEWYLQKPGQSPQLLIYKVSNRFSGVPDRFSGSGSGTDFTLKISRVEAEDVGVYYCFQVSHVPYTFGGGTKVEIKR is strictly below 2%.
Reply text: y

Inquiry: Please indicate whether the reported Aggregate (%) of Hu2B5.9: humanized 2B5-8.0; VH SEQ ID NO 76, VL SEQ ID NO 77 (antibody, V domains shown) VH: EVQLVQSGAEVKKPGASVKVSCKASGYTFTKYWLGWVRQAPGQGLEWMGDIYPGYDYTHYNEKFKDRVTMTTDTSTSTAYMELRSLRSDDTAVYYCARSDGSSTYWGQGTLVTVSS VL: DIVMTQTPLSLPVTPGEPASISCTSSQNIVHSNGNTYLEWYLQKPGQSPQLLIYKVSNRFSGVPDRFSGSGSGTDFTLKISRVEAEDVGVYYCFQVSHVPYTFGGGTKVEIKR is strictly below 2%.
Reply text: y

Inquiry: Please indicate whether the reported Aggregate (%) of Hu2B5.3: humanized 2B5-8.0; VH SEQ ID NO 64, VL SEQ ID NO 65 (antibody, V domains shown) VH: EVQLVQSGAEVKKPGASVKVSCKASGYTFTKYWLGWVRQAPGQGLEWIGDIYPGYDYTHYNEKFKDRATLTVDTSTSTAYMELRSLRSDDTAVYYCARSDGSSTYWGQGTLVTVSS VL: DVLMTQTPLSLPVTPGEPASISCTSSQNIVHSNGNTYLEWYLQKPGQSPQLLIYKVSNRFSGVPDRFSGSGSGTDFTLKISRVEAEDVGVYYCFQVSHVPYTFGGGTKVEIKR is strictly below 2%.
Reply text: n

Inquiry: Please indicate whether the reported Aggregate (%) of Hu2B5.8: humanized 2B5-8.0; VH SEQ ID NO 74, VL SEQ ID NO 75 (antibody, V domains shown) VH: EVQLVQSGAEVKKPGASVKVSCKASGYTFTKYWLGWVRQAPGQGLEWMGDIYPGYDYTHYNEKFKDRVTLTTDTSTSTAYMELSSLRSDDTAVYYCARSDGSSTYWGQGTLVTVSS VL: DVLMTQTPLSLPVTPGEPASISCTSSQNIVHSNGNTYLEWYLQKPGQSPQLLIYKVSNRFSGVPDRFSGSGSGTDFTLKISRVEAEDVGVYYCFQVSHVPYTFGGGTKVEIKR is strictly below 2%.
Reply text: n
